- study target: FFAR (R10; GPR40) (Homo sapiens)
- Construct: expressed in transfected cells; host or cells: HFF11 reporter cells (HeLa-based), line HFF11.pR10
- Sequence (O14842 whole entry): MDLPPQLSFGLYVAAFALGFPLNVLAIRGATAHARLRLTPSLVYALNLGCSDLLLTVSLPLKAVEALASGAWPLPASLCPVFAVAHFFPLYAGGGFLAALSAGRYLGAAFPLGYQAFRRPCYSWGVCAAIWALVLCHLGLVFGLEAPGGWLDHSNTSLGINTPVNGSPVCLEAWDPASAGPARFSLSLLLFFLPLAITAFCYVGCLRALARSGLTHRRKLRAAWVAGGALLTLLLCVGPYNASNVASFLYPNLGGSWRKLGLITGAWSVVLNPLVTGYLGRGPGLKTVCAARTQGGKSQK
- test: HFF11 reporter cell assay, HFF11.pR10 cells expressing FFAR
- Format: cell-based
- condition summary: FFAR response to free fatty acids, HFF11.pR10 reporter cell line; read-out: Mean EC50
recorded metric: EC50 (µM)

[1] CCCCC/C=C\C/C=C\CCCCCCCCCC(=O)O [EDA, cis-11, cis-14- -eicosadienoic acid]
[2] CCC=CCC=CCC=CCC=CCCCCC(=O)O
[3] CCCCCCCCCCCCCCCC(=O)O
Input: From the items above, give an ordering by EC50 that starts at the lowest reported number. Write the labels, ordered according to the request.
Output: 2, 1, 3
